- test_description: Aqueous solubility measurements
- Type: physicochemical
- assay_setup: final pH of saturated solution; media 0.01N HCl; 24 hours at 25° C.
- Procedure: Testing media: water, pH 1.2, 4.5, 6.8, 7.4 USP buffers, 0.01 N HCl, 0.1 N HCl, SGF, FaSSIF, FeSSIF. The various testing media were prepared as follows: […] Testing procedure: The tested febuxostat form was placed in each of the different media and was kept shaken for 24 hours at 25° C. […] The concentration of the febuxostat form in filtrate was determined by HPLC. […]
readout_name: pH
Just the number, please, no unit after it.

Here's what some known entries look like.
Q: Any idea what its pH is? The compound is Cc1nc(-c2ccc(OCC(C)C)c(C#N)c2)sc1C(=O)O [Form G of U.S. Pat. No. 6,225,474, reference compound]
Result: 1.987

Q: Check Cc1nc(-c2ccc(OCC(C)C)c(C#N)c2)sc1C(=O)O [Form V] too.
Result: 2.003

---
Q: Record request: pH value, item Cc1nc(-c2ccc(OCC(C)C)c(C#N)c2)sc1C(=O)O [Form XI]
Result: 1.981

Q: Cc1nc(-c2ccc(OCC(C)C)c(C#N)c2)sc1C(=O)O [Form IX] ?
Result: 2.078

FYI, the data here is from patent US20130225830A1.
